The reported measurements were obtained from the nanobody polyreactivity screen of Harvey et al. (2022).

- measurementDescription: yeast display, Sf9 membrane polyspecificity reagent, FACS + sequencing; frameworks hold sequencing errors
measurementType: polyreactivity (PSR sort gate)

sequenceEntry	polyreactivity (PSR sort gate)
QVQLVESGGGLVQAGGSLPLSCAASGFIYGGNAMGWYRQAPGKERELVAAISKSGGRTYYADSVKGRFTISRDNAKNTVYLQMNSLKPEDTAVYYCAAVPGRTAEDYGEDYWGQGTEVTVSS	high polyreactivity
QVQLVESGGGLVQAGGSLRLTCAASGSIFSTNAMGWYRQAPGKERELVATITSGGRTYYADSVKGRFTISRDNAKNTVYLQMNSLKPEDTAVYYCARVPPKYRWGRRLVYVHVDYWGQGTQVTVSS	low polyreactivity
QVQLVESGGGLVQAGGSLRLSCAASGSTFRSYAMGWYRQSPGKERELVAAISTRGGSTYYADSVKGRFTISRDNAKNTVYLQMNSLKPEDTAVYYCAVEIVWAYGPTDYYYWGQGTQVTVSS	high polyreactivity
QVQLVESGGGLVQAGGSLRLSCAASGSTLVLNAMGWYRQAPGKERELVAAITISGDTTYYADSVKGRFTISRDNAKNTVYLQMNSLKPEDTAVYYCAAVVSTVDGMEYWGQGTQVTVSS	low polyreactivity

Q. Quick one: give measured polyreactivity (PSR sort gate) for QVQLVESGGGLVQAGGSLRLSCAASGIIFALYAMGWYRQAPGKERELVATITYSGGSTYYADSVKGRFTISRDNAKNTVYLQMNSLKPEDTAVYYCAADYYILRWRQTNDYWGQGTQVTVSS
A. low polyreactivity
